- EXPERIMENTAL_TARGET: SARS-COV-2 RBD extracellular domain expressed with a C-terminal mouse IgG2a Fc (SARS-CoV-2)
- ASSAY_PROTOCOL: Biacore SPR, mAb captured on anti-hFc, 37 C
kon overview
Expressed in M⁻¹ s⁻¹, but write only the number.

# BINDER, READOUT, VALUE_UNITS, VALUE_MEASURED
measured = [
    ("mAb14285 (antibody, V domains shown) VH: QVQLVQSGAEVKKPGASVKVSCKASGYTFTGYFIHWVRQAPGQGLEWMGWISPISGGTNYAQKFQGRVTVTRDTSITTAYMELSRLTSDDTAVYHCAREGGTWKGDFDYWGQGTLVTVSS VL: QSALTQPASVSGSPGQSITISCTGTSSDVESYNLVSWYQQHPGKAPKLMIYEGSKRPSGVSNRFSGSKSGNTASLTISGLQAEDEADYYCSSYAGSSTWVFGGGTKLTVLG", "kon", "M⁻¹ s⁻¹", "4.45e+06"),
]

*Q* Data request, read-out kon, for mAb14280 (antibody, V domains shown) VH: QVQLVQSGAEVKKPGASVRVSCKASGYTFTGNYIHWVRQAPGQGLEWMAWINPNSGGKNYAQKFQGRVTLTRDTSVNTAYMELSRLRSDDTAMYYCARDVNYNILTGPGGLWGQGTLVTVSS VL: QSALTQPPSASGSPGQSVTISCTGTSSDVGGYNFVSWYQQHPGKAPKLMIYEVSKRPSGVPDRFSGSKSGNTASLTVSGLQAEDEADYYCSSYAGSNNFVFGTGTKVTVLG
*A* 2.92e+06

*Q* Quick one: kon for mAb15165 (antibody, V domains shown) VH: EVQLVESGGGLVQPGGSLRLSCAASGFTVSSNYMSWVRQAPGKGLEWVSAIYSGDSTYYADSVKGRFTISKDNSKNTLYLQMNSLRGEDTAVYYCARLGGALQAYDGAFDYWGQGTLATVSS VL: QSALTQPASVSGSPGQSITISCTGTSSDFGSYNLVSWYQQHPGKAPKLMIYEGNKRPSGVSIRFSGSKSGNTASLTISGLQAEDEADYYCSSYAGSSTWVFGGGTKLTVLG ?
*A* 100000
